target: LGR4 (Homo sapiens); construct: purchased Promega (in-house HiBiT-GPCR construct library, NanoBRET); assay: NanoBRET screen HiBiT-LGR4 in HEK293; format: binding; details: LGR4; tracer 0.1μM
Sequence (Q9BXB1 25-951): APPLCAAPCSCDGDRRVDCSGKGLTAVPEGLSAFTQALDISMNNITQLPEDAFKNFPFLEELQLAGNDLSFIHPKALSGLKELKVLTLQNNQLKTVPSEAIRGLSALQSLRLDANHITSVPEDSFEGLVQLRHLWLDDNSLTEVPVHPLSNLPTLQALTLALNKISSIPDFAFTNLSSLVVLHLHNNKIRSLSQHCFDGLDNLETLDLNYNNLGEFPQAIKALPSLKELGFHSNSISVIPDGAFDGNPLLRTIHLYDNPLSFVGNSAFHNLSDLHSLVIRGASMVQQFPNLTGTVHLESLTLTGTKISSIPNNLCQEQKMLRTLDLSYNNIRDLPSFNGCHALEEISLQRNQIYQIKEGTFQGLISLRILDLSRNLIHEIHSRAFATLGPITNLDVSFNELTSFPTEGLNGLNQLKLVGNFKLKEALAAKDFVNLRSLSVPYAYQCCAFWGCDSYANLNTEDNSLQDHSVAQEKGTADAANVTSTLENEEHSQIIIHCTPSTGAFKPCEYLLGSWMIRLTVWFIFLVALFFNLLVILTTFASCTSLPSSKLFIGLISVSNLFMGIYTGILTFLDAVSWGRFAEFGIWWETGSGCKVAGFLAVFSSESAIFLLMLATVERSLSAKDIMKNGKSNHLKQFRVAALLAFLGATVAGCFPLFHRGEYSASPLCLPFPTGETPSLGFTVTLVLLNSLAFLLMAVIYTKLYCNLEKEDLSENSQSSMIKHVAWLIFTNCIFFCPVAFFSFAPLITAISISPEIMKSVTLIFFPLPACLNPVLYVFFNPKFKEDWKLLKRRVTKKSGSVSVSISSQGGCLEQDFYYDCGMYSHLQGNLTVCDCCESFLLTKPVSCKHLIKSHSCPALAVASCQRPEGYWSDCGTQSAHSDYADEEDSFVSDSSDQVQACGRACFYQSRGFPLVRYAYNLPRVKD
Please respond with reported NanoBRET Fold Response for every item in the list.
Give bare numbers.

Please review the following examples before continuing.
COMPOUND | NanoBRET Fold Response
O=C(CCOCCOCCOCCOCCNC(=O)CCc1ccc2n1[B-](F)(F)[N+]1=C(c3ccc[nH]3)C=CC1=C2)NCCCN1CCN(C2=Nc3ccccc3Oc3ccc(Cl)cc32)CC1 [Loxapine-a-2-NB590] | 0.97
N#CN=C(NCCCOc1cccc(CN2CCCCC2)c1)NCCNC(=O)CCOCCOCCOCCOCCNC(=O)CCc1ccc2n1[B-](F)(F)[N+]1=C(c3ccc[nH]3)C=CC1=C2 [Aminopotentidine-2-NB590] | 1.01
CC(C)N(CC[C@H](c1ccccc1)c1cc(CCNC(=O)c2ccc(CNC(=O)CCc3ccc4n3[B-](F)(F)[N+]3=C(c5ccc[nH]5)C=CC3=C4)cc2)ccc1O)C(C)C [Tolterodine-BZ-NB590] | 1.02
O=C(CCc1ccc2n1[B-](F)(F)[N+]1=C(c3ccc[nH]3)C=CC1=C2)NCc1ccc(C(=O)NCCOCCC(=O)N[C@@H]2CC[C@@]3(O)[C@H]4Cc5ccc(O)c6c5[C@@]3(CCN4CC3CC3)[C@H]2O6)cc1 [Naltrexone-3-NB590] | 0.94

Proceed to the following item.
Per the records, this compound ( COc1ccccc1N1CCN(CCCCN2C(=O)c3ccc(CNC(=O)CCOCCOCCOCCOCCNC(=O)CCc4ccc5n4[B-](F)(F)[N+]4=C(c6ccc[nH]6)C=CC4=C5)cc3C2=O)CC1 [NAN-190-2-NB590] ) has NanoBRET Fold Response equal to 1.09
